# TESTED_ON: T1, human BCMA-His protein (ACRO, Cat#: BCA-H522y) (human, UniProt Q02223 1-54)
# T1 construct: Bought protein; also called Human BCMA protein; huBCMA-his
# T1 sequence: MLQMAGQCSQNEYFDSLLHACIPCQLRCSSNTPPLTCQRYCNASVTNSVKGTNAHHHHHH
# ASSAY_DETAILS: BLI (ForteBio Octet RED96e), antibody on AHC sensor, 100 nM human BCMA-His, 1:1 model
MEASURED_ENDPOINT: kon (M⁻¹ s⁻¹)
Quick note: give the figure in M⁻¹ s⁻¹, leave out the unit.

Q. Look up kon: 269B094 (a fully human monoclonal antibody targeting BCMA) (antibody, V domains shown, also called control antibody; control sample) VH: DVQLVESGGGLVQPGGSLRLSCAASGRTFSSIVMGWFRQAPGKEREFVGAIMWNDGITYLQDSVKGRFTIFRDNAKNTVYLQMNSLKLEDTAVYYCAASKGRYSEYEYWGQGTQVTVSS
A. 1e+06

Q. Look up kon: huBH56-4-IgG (antibody, V domains shown, Humanized VHH-Fc heavy-chain antibody) VH: EVQLVESGGGLIQPGGSLRLSCAASGFTFAPSAMSWARQPPGKEVEWVSGIYGDGRTYYADSVKGRFTISRDNSKNTVYLQMNSLRAEDTAVYYCVVGIRLLSESWAQALRGQGTQVTVSS
A. 1e+06

Q. Look up kon: huBH56-6-IgG (antibody, V domains shown, Humanized VHH-Fc heavy-chain antibody) VH: EVQLVESGGGLIQPGGSLRLSCAASGFTFAPSAMSWARQPPGKGLEWVSGIYGDGRTYYADSVKGRFTISRDNSKNTVYLQMNSLRAEDTAVYYCVVGIRLLSESWAQALRGQGTQVTVSS
A. 979000

Q. Look up kon: HA68-IgG (antibody, V domains shown, also called anti-human BCMA chimeric antibody) VH: QVQLVETGGGLVQPGGSLRLSCAASGFTFSPSAMNWARQAPGKGLEWVAGIYGDGKAEYADSVKGRFTISRDNAKNMVYLQMVNLRPEDTAVYSCAVGIRPTDAPWAASLRGQGTQVTVSS
A. 1e+06

Q. Look up kon: huHA68-4-IgG (antibody, V domains shown, Humanized VHH-Fc heavy-chain antibody) VH: EVQLVETGGGLIQPGGSLRLSCAASGFTFSPSAMSWARQAPGKGLEWVSGIYGDGKAEYADSVKGRFTISRDNSKNTVYLQMNSLRAEDTAVYSCAVGIRPTDAPWAASLRGQGTLVTVSS
A. 1e+06
